Numbers sourced from PubChem BioAssay (NCI).

Please respond with reported TGI for every item in the list.
- Test system: MDA-MB-231 breast
- Assay comment: NCI tumour cell line growth inhibition, 48 h
Return type: number; implicit unit µM.

Requested read-out: TGI. Entry: COc1ccc(P2(=S)Oc3ccc(C(c4ccccc4)(c4ccccc4)c4ccccc4)cc3O2)cc1 (centres undefined) 38.9

Requested read-out: TGI. Entry: COc1ccc(C2C=C(c3ccccc3)Nc3nnnn32)cc1 (centres undefined) 90.5

Requested read-out: TGI. Entry: O=C1c2ccccc2C(=O)c2c(N=Nc3[nH]c(=S)[nH]c3O)cccc21 18.3

Requested read-out: TGI. Entry: COC(=O)C(N)CSC(c1ccccc1)(c1ccccc1)c1ccccc1 (centres undefined) 25.4
